Tested on: HCT-15
propertyMeasured: GI50 (µM)

c1cc2n(n1)CCN2 = 2140
O=c1[nH]c2cc(C(F)(F)F)ccc2nc1C(F)(F)F = 37.2
COc1ccc(NC(=O)C(=O)NO)c(OC)c1 = 16.3

---

Test system: SR
Experiment: NCI tumour cell line growth inhibition, 48 h
Calls of active or inactive are those of the source. Cut-off read from the data, not from the text of the source: active = GI50 up to about 1.1 µM and inactive = higher.
Outcome codes: 1 (active), 0 (inactive)

O=c1[nH]cc(/C=N\Nc2ccccc2)c(=O)[nH]1 = 0
O=C(NO)c1cccc(OCc2ccc(Br)cc2)c1 = 0
C=C(Br)N(CC)CC = 0
O=c1cc(NNc2ccccc2)[nH]c(=O)[nH]1 = 0
c1ccc(NC[Si]23OCCN(CCO2)CCO3)cc1 = 0
CCOC(=O)/C=C(/C(=O)OCC)n1ccc(=O)n(CC(=O)OCC)c1=O = 0
N#Cc1ccc(-c2nc3c(N)nc(-c4ccccc4)nc3o2)cc1 = 0
COc1ccc2nc3cccc(C(=O)NCCN(C)C)c3nc2c1 = 1
CCN(CC)c1ccc2cc(C(=O)Nc3nc(C45CC6CC(CC(C6)C4)C5)cs3)c(=O)oc2c1 = 0
CC(NC(=O)c1ccc(OP(=O)(OCC2=CC(=O)c3ccccc3C2=O)N(C)CCCCCl)cc1)c1ccc(OCC2CCCCC2)c(C(N)=O)c1 (configuration not stated) = 0
CC(=O)c1cccc(NC(=O)C(=O)C(C(=O)c2ccccc2F)C2OC(=O)c3ccccc32)c1 (configuration not stated) = 0
O=C(O)C(Br)C(Br)C(=O)O (configuration not stated) = 0
